Target: human Cav3.2 channels (Homo sapiens, UniProt O95180)
Sequence (O95180 whole entry): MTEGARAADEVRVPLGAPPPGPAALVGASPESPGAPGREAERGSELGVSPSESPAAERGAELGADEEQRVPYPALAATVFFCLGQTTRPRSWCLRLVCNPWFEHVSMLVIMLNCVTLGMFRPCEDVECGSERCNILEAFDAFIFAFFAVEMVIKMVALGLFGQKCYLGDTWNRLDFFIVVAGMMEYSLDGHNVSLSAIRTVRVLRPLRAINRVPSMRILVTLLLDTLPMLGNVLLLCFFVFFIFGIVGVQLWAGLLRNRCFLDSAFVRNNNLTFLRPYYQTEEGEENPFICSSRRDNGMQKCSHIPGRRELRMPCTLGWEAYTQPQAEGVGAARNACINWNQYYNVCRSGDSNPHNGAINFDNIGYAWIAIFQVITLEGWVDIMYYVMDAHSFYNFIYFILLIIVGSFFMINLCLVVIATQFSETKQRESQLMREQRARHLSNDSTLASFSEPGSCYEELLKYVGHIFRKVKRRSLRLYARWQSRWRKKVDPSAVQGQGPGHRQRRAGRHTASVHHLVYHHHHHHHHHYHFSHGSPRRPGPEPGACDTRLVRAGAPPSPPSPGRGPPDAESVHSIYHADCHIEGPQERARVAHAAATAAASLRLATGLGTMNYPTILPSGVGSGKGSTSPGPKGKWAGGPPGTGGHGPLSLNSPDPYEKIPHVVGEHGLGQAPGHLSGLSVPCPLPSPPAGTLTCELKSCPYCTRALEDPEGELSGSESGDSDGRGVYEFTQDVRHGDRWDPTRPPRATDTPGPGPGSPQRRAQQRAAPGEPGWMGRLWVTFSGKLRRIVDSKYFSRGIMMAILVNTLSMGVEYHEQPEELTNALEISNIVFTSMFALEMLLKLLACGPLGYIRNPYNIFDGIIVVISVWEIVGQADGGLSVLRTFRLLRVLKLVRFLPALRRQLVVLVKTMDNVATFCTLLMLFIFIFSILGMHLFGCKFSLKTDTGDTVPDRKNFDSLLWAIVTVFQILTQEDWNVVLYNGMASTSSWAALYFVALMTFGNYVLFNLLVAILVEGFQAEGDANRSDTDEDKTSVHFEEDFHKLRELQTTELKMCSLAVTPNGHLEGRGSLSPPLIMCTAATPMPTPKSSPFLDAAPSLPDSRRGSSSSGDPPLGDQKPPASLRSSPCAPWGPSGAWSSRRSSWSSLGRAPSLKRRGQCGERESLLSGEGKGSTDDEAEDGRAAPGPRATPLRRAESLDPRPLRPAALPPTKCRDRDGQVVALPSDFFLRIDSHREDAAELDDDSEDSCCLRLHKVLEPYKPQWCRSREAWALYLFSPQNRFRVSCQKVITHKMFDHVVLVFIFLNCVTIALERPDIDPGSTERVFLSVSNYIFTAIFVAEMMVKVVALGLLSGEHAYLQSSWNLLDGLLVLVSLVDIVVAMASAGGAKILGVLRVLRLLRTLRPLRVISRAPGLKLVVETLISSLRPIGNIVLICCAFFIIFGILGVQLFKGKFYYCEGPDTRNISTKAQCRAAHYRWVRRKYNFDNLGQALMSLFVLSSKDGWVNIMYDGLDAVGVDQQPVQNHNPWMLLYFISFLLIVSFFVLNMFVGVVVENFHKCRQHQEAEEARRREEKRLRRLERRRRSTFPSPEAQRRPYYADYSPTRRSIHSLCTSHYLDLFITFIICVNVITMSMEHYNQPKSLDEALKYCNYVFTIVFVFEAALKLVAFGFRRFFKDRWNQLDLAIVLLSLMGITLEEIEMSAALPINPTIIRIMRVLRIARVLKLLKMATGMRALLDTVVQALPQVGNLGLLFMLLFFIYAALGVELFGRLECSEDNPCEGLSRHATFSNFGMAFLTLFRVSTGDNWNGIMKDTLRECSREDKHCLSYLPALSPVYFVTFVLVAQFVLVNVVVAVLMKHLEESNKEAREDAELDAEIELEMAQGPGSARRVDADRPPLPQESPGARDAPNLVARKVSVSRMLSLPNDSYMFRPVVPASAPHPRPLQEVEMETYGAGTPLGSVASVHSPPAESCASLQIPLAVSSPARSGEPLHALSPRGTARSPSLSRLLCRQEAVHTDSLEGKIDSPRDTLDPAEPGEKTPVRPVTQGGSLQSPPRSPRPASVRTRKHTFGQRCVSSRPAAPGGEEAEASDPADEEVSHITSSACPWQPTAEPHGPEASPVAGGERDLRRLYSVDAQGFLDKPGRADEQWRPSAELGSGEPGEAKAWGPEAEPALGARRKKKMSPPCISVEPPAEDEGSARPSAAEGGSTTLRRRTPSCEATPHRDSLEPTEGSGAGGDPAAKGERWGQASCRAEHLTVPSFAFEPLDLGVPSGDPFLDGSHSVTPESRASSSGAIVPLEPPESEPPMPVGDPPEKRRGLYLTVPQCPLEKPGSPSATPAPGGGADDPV
Test: T-type calcium blocking action: intracellular calcium concentration in cells steadily expressing human Cav3.2 channels
Details: HEK293 cells steadily expressing human Cav3.2 channels; Fluo-4 AM fluorescence increase after KCl stimulus
readout name: pIC50
FYI, pIC50 means -log10 of a concentration in mol per litre.

In: Identify measured pIC50 associated with N#Cc1cccc(N2CC[C@@H](NC(=O)[C@H]3C[C@@H]3c3nc4ccccc4[nH]3)C2)c1 [Example 60]
Out: 6.33

In: Identify measured pIC50 associated with COc1ncc(N2CC[C@@H](NC(=O)[C@H]3C[C@@H]3c3nc4ccccc4[nH]3)C2)cc1C(F)(F)F [Example 67]
Out: 7.54

In: Identify measured pIC50 associated with N#Cc1ccc2[nH]c(C3CC3C(=O)N[C@@H]3CCN(c4ccc(C(F)(F)F)nc4)C3)nc2c1 (single isomer, unassigned) [Example 61A]
Out: 5.96

In: Identify measured pIC50 associated with O=C(N[C@H]1CCN(c2ccc(C(F)(F)F)nc2)C1)[C@H]1C[C@@H]1c1nc2ccccc2[nH]1 [Example 55]
Out: 6.33

In: Identify measured pIC50 associated with O=C(N[C@@H]1CCN(c2ncc(C(F)(F)F)cn2)C1)[C@H]1C[C@@H]1c1nc2ccccc2[nH]1 [Example 56]
Out: 6.54

In: Identify measured pIC50 associated with CS(=O)(=O)c1cccc(N2CC[C@@H](NC(=O)[C@H]3C[C@@H]3c3nc4ccccc4[nH]3)C2)c1 [Example 59]
Out: 5.74

In: Identify measured pIC50 associated with O=C(N[C@@H]1CCN(c2ccc(C(F)(F)F)nn2)C1)[C@H]1C[C@@H]1c1nc2ccccc2[nH]1 [Example 69]
Out: 5.92

In: Identify measured pIC50 associated with O=C(N[C@@H]1CCN(c2cncc(C(F)(F)F)c2)C1)[C@H]1C[C@@H]1c1nc2cc(F)c(F)cc2o1 [Example 45]
Out: 7.96

In: Identify measured pIC50 associated with O=C(N[C@@H]1CCN(c2ccc(F)c(C(F)(F)F)c2)C1)[C@H]1C[C@@H]1c1nc2ccccc2[nH]1 [Example 57]
Out: 7.70

In: Identify measured pIC50 associated with O=C(N[C@@H]1CCN(c2ccnc(C(F)(F)F)c2)C1)[C@H]1C[C@@H]1c1nc2ccccc2[nH]1 [Example 62]
Out: 6.39

* * *

System: SD rats
Experiment: Rat formalin test
Assay type: in vivo
Settings: po, 30 mg/kg orally once, pain behavior time from 15 to 30 minutes after formalin administration vs vehicle group, read-out: Inhibition ratio (pain behavior inhibition ratio)
readout name: inhibition in vivo at 30 mg/kg

In: Recall the reported inhibition in vivo at 30 mg/kg of COc1ncc(N2CC[C@@H](NC(=O)Cc3ccc(C(C)C)cc3)C2)cc1C(F)(F)F [Example 110] when tested on SD rats.
Out: ≥ 20%

In: Recall the reported inhibition in vivo at 30 mg/kg of O=C(Cc1ccc(N2CCS(=O)(=O)CC2)cc1)N[C@@H]1CCN(c2cncc(C(F)(F)F)c2)C1 [Example 23] when tested on SD rats.
Out: < 10%

In: Recall the reported inhibition in vivo at 30 mg/kg of N#CC1(NC(=O)Cc2ccc(C3CC3)cc2)CCN(c2cncc(C(F)(F)F)c2)C1 (stereo not shown) [Example 36] when tested on SD rats.
Out: < 10%

In: Recall the reported inhibition in vivo at 30 mg/kg of O=C(N[C@@H]1CCN(c2cncc(C(F)(F)F)c2)C1)C1CC1c1ccc(Br)cc1 (single isomer, unassigned) [Example 100A] when tested on SD rats.
Out: ≥ 20%
